Collected from the literature: IC50 of various compounds toward BTK (Homo sapiens).

{"Compound": "O=C(c1c(F)ccc(NS(=O)(=O)N2CCCCC2)c1F)c1c[nH]c2ncc(Cl)cc12", "IC50": "≤ 10000 nM"}
{"Compound": "C=CC(=O)N1CCCC(c2ccc(C(N)=O)c(-c3ccc(Oc4ccccc4)cc3)n2)C1 (centres unmarked)", "IC50": "< 500 nM"}
{"Compound": "Cc1cc(-c2cc(Nc3cc4n(n3)CCCNC4)ncn2)ccc1CNC(=O)N1CC(OC(C)C)C1", "IC50": "< 10 nM"}

Data request: # value lookup — system BTK (Homo sapiens), readout IC50, item C=CC(=O)N1CCOc2ccc(-c3csc4c(=O)cc(N5CCN(C)CC5)oc34)cc21
Data returned: < 1000 nM

Data request: IC50 of C=CC(=O)Nc1cccc(Oc2c(Cl)cnc3[nH]c(-c4ccc(C(=O)NC5CCN(C)CC5)cc4)nc23)c1 on BTK (Homo sapiens)?
Data returned: 50 to 100 nM

Data request: Request body: readout IC50, system BTK (Homo sapiens), query COc1ccc(NC(=O)/C=C/CN(C)CCCCNC(=O)CCCC(=O)NCCCOCCOCCOCCCNC(=O)CCCC[C@@H]2SC[C@@H]3NC(=O)N[C@@H]32)cc1Nc1cc(Nc2ccc(F)c(Cl)c2)ncn1 . Return the value.
Data returned: ≤ 10 nM

Data request: Param readout= IC50; system= BTK (Homo sapiens); entry= C=CC(=O)N1CCC(c2ccc(C(N)=O)c(-c3ccc(C(=O)Nc4ccccc4)cc3)n2)CC1 ; returns value.
Data returned: < 500 nM

Data request: Request - read-out IC50 | tested on BTK (Homo sapiens) | compound C=CC(=O)N1CCC[C@@H](n2cc(-c3ccc(Oc4ccccc4Cl)cc3)c3c(N)n[nH]c(=O)c32)C1
Data returned: 10 to 1000 nM

----------
Consider the following IC50 data for BTK (Homo sapiens), collected from several reports.
Field: numeric (nM). Do not append units.

Solved cases (2 shown):
{"Compound": "C#CC(=O)N1CC2CC1C(n1nc(-c3ccc(C(=O)Nc4cc(C(F)(F)F)ccn4)cc3)c3c(N)ncnc31)C2 (stereo not shown)", "Assayed target": "BTK (Homo sapiens)", "IC50 [nM]": 22.7}
{"Compound": "C=CC(=O)N1CCCC(c2c(Cl)c(-c3ccc(Oc4cccc(Cl)c4)c(OC)c3)c3c(N)ncnn23)C1 (stereo not shown)", "Assayed target": "BTK (Homo sapiens)", "IC50 [nM]": 2}

Turning now to a further record.
Data request: Form field: IC50 recorded for C=CC(=O)N1CC(Nc2cncc(-c3cnc(Oc4cccc(C(F)(F)F)c4)nc3)c2)C1 with BTK (Homo sapiens) (enter value)
Data returned: 23.1

----------
Values of pIC50 for BTK (Homo sapiens, UniProt Q06187), collected from a number of published sources:
pIC50: −log10 of the molar value.

// below: answered molecules
{"Molecule": "O=C(NC1CN(c2ncnc3[nH]ncc23)CCC1c1ccccc1)[C@H](Nc1cc(F)cc(Cl)c1)C1CC1 (stereo partly drawn)", "pIC50": "> 7.00"}
{"Molecule": "CCC[C@@H](Nc1cc(Cl)cc(Cl)c1)C(=O)N1CCC2CCN(c3ncnc4[nH]ccc34)C2C1 (stereo partly drawn)", "pIC50": "> 7.00"}
{"Molecule": "C=CC(=O)N1CC2CC1(c1nc(-c3ccc(C(=O)Nc4ccccn4)cc3)c3c(N)nccn13)CO2 (stereo not drawn)", "pIC50": 8.55}
{"Molecule": "CN(C/C=C/C(=O)N1CC[C@@H](n2nc(-c3ccc(C(=O)Nc4ncc(C5CC5)s4)cc3)c3c(N)ncnc32)C1)C1CC1", "pIC50": "> 7.00"}
{"Molecule": "Cc1cc(-c2ncnc3cc(-c4cnn(C)c4)[nH]c23)ccc1CNC(=O)N1CC(OC(C)C)C1", "pIC50": "> 8.00"}
{"Molecule": "O=C(CNc1ccc(F)cc1Cl)N[C@@H]1CCCN(c2ncnc3[nH]ccc23)C1", "pIC50": "6.00 to 7.00"}
{"Molecule": "C=CC(=O)Nc1cccc(-c2cc(-c3ccccc3C#N)cc3cnc(N)nc23)c1", "pIC50": "> 7.00"}
{"Molecule": "O=C(NCc1ncc(-c2ncnc3[nH]ncc23)cc1F)c1cc2c(s1)CCCC2", "pIC50": "6.00 to 7.00"}

Next:
Data request: # query: pIC50 of entry O=C(CNc1ccccc1Sc1ccccc1)N[C@@H]1CCCN(c2ncnc3[nH]ncc23)C1
Data returned: > 7.00

----------
Note to self: these compounds have pIC50 reported for BTK (Homo sapiens, UniProt Q06187) in various publications.
pIC50: −log10 of the molar value.

Some solved cases for reference:
{"Smiles": "CN(Cc1cc(-c2ccnc(N)n2)ccc1CNC(=O)c1cc2c(s1)CCCC2)C(=O)OC(C)(C)C", "Assayed target": "BTK (Homo sapiens, UniProt Q06187)", "pIC50": "7.00 to 8.00"}
{"Smiles": "COc1ncc(-c2cnc3[nH]cc(C(=O)c4c(F)ccc(NS(=O)(=O)c5ncn[nH]5)c4F)c3c2)cn1", "Assayed target": "BTK (Homo sapiens, UniProt Q06187)", "pIC50": "≥ 5.00"}
{"Smiles": "O=C(NCc1ccc(-c2ncnc3[nH]ccc23)cc1)N1Cc2ccccc2C1", "Assayed target": "BTK (Homo sapiens, UniProt Q06187)", "pIC50": "7.00 to 8.00"}
{"Smiles": "C[C@@H](NC(=O)c1nc2c(s1)CCCC2)c1ccc(-c2ncnc3[nH]ccc23)cc1", "Assayed target": "BTK (Homo sapiens, UniProt Q06187)", "pIC50": "6.00 to 7.00"}
{"Smiles": "C=CC(=O)N1CC(CNc2nc(Nc3nccs3)nc3ccsc23)C1", "Assayed target": "BTK (Homo sapiens, UniProt Q06187)", "pIC50": "7.00 to 7.30"}
{"Smiles": "CC#CC(=O)N[C@H]1CCC[C@H](c2c(F)c(F)c(C(N)=O)c3[nH]c(C)c(C)c23)C1", "Assayed target": "BTK (Homo sapiens, UniProt Q06187)", "pIC50": "8.00 to 9.00"}

Data request: Name the recorded pIC50 for O=C(CNc1cc(C(F)(F)F)ccc1N1CCCCC1)N[C@@H]1CCCN(c2ncnc3[nH]ccc23)C1 .
Data returned: 5.00 to 6.00

Data request: // pIC50 lookup, key: Cc1cc(-c2ccnc(N)n2)ccc1CNC(=O)c1cc2c(s1)CCCC2
Data returned: > 8.00

----------
Compiled record: IC50 values for BTK (Homo sapiens) across several sources.

Below are worked cases with known answers.
{"Compound": "Cc1cc(NCC(=O)NC2CCCN(c3ncnc4[nH]ccc34)C2)on1 (stereo not shown)", "IC50": "> 10000 nM"}
{"Compound": "C=CC(=O)Nc1cccc(Oc2nc(Nc3ccc([S+](C)[O-])cc3)nc3ccsc23)c1 (stereo not shown)", "IC50": "50 to 100 nM"}
{"Compound": "Cn1ncc2ccc(-c3cccc4c(N)c(C(N)=O)nnc34)cc21", "IC50": "1580 nM"}

We now examine a further compound.
Data request: Item under review: CCn1cc(-c2cc3ncnc(-c4ccc(CNC(=O)c5ncc(C(C)(C)C)s5)c(C)c4)c3[nH]2)cn1 . Reported IC50?
Data returned: < 10 nM

----------
Let's look at some pIC50 data for UniProt Q06187 that I collected from the literature.
Scale note: pIC50 = -log10(concentration in M).

Recorded pIC50, per entry:
{"Compound": "C=CC(=O)N1CC(C)(Nc2cncc(-c3cnc(Oc4cccc(Cl)c4)nc3)n2)C1", "Result type": "pIC50", "Obs value": 7.75}
{"Compound": "Nc1ncnc2c1c(-c1cc(O)cc(F)c1)nn2C1CCc2ccccc2C1 (stereo not shown)", "Result type": "pIC50", "Obs value": 7.06}
{"Compound": "C[C@H]1CNC(=O)c2cnn3ccc(nc23)N[C@H](C)c2c(ccc(F)c2Cl)O1", "Result type": "pIC50", "Obs value": 8.60}
{"Compound": "NC(=O)c1nnc2c(-c3ccc4nc(NCC5C6CC7CC(C6)CC5C7)[nH]c4c3)cccc2c1N (stereo not shown)", "Result type": "pIC50", "Obs value": 7.20}
{"Compound": "C#CC(=O)N1CC2CC1CC2n1nc(-c2ccc(Oc3ccccc3)cc2)c2c(N)ncnc21 (stereo not shown)", "Result type": "pIC50", "Obs value": 8.55}
{"Compound": "CN(C)C(=O)c1ccc(Nc2nc(-c3cccc(N4CCc5cc(C6CC6)ccc5C4=O)c3CO)cn(C)c2=O)cc1", "Result type": "pIC50", "Obs value": 7.82}
{"Compound": "C=CC(=O)N1CCC[C@H](Nc2cc(CN3CCOCC3)cc(Nc3ncc(C)s3)n2)C1", "Result type": "pIC50", "Obs value": 6.82}

From here, focus on the item given below.
Data request: Recorded pIC50 of Cn1cc(-c2ccnc(N3CCn4c5c(c(F)c4C3=O)CC(C)(C)C5)c2CO)cc(Nc2ccc(N3CCN(C4COC4)CC3)cc2)c1=O , please.
Data returned: 9.17
